Molecular target: T1, Rhesus SLC34A2 (Rhesus, UniProt F7HDA3 1-690)
T1 construct: whole, on cells
T1 sequence: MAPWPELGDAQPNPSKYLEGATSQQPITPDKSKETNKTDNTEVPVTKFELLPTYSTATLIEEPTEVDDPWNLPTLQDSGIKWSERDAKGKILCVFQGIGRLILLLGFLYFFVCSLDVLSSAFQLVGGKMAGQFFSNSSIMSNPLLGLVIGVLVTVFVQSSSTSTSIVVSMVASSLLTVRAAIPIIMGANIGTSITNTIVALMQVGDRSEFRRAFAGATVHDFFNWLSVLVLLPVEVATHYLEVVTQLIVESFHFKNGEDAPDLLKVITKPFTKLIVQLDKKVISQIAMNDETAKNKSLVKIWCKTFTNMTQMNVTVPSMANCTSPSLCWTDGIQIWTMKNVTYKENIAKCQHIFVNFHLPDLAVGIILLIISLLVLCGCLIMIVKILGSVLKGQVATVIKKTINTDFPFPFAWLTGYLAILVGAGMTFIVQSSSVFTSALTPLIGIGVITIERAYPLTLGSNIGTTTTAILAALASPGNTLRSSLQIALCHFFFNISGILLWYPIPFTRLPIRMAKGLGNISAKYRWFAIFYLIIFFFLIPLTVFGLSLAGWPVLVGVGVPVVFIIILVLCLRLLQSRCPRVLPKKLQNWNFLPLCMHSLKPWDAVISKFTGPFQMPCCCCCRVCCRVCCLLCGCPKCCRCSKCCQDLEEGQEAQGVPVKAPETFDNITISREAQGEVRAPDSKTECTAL
Assay: FACS, HEK293/Rhesus SLC34A2 cells
Reported pEC50 values for the following binders.
Friendly reminder that pEC50 comes from taking -log10 of the concentration in mol/L.

xi91C9F1 hIgG1 (antibody, V domains shown, chimeric, hIgG1) VH: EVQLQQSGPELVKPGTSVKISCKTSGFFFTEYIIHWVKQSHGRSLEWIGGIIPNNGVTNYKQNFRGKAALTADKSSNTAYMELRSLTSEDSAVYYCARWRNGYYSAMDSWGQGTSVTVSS VL: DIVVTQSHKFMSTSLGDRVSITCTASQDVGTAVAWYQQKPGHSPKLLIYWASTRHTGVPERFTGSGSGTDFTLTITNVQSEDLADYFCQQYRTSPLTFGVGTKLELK = 8.41
xi90G10H7 hIgG1 (antibody, V domains shown, chimeric, hIgG1) VH: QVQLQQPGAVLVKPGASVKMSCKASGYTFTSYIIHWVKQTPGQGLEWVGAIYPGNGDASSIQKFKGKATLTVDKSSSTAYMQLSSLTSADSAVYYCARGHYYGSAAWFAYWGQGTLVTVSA VL: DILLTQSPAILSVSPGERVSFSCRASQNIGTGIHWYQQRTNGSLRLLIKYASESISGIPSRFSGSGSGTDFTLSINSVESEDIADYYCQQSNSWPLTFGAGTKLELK = 8.46

Let us examine a further case.
For record xi30H9B8F9 hIgG1 (antibody, V domains shown, chimeric, hIgG1) VH: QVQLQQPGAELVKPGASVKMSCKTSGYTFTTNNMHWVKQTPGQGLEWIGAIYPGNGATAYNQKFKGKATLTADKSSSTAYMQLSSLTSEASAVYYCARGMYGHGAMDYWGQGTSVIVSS VL: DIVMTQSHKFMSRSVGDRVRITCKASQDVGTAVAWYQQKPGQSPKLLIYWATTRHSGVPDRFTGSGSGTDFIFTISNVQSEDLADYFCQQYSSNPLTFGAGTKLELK the listed pEC50 is 8.72
